# Subject of test: ROCK2 (Homo sapiens (Human), UniProt O75116)
# Sequence (O75116 whole entry, species assumed): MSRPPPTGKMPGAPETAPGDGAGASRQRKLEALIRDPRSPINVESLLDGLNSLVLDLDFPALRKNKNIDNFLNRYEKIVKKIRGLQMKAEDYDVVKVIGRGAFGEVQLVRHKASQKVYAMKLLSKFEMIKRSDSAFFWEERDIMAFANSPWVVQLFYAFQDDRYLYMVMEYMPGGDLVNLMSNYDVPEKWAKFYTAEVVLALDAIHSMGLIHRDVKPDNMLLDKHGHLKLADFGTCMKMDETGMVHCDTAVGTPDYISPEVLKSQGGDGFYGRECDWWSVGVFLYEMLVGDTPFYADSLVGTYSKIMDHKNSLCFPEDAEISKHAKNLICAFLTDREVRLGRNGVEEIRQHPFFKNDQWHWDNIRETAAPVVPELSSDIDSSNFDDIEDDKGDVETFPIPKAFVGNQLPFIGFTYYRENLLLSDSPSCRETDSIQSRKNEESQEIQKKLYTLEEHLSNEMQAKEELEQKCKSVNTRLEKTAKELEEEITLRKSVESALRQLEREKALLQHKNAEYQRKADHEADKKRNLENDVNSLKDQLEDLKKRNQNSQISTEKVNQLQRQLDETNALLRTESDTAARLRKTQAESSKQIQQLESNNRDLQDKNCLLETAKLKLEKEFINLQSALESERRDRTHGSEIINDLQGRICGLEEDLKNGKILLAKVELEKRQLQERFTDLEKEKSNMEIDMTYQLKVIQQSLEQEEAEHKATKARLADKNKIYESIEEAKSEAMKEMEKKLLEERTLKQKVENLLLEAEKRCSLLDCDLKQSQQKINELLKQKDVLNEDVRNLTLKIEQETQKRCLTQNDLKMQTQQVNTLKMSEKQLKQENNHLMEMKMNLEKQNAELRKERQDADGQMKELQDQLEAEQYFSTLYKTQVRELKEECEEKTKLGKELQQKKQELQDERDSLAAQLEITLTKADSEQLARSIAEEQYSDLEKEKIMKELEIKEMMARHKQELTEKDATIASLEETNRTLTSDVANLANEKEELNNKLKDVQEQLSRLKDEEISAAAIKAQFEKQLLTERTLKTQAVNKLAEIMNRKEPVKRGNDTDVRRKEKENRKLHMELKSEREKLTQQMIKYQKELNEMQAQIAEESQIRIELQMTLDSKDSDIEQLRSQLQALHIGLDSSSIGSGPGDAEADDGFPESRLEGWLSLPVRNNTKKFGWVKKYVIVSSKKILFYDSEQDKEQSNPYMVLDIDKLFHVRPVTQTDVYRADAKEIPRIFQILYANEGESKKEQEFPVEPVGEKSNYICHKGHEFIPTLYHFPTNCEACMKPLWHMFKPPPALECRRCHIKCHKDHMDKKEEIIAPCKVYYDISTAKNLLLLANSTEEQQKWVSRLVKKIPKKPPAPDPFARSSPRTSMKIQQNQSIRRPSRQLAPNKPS
# Test summary: ROCK assay (peptide substrate phosphorylation, LABCHIP 3000 Reader)
# Type: biochemical
# Experimental setup: 5 μM ATP, 1.5 μM peptide substrate
The following compounds are shown together with reported IC50 values.

Form field: reported IC50 of COc1cccc(C2CCCN2C(=O)c2ccc(-c3ccnc(N)c3)c(OC)c2)c1 (stereo not shown) [Example 81]
0.158 µM

Okay, and CS(=O)(=O)c1cccc([C@H]2CC(O)CN2C(=O)c2ccc(-c3ccnc4[nH]ccc34)cc2)c1 (stereo partly shown) [Example 99] ?
0.614 µM

Now the same for COc1cc(C(=O)NC2CCc3ccccc32)ccc1-c1cn[nH]c1 (stereo not shown) [Example 5]
0.0322 µM

Now for another entry.
If you can, please state the reported IC50 value of COc1cc(C(=O)N2CCCC2c2ccc3c(c2)OCO3)ccc1-c1cn[nH]c1 (stereo not shown) [Example 30] .
0.0753 µM

Where do these numbers come from? They come from patent US10112939B2.
